Test Target: hERG potassium channel (Homo sapiens, UniProt Q12809)
Construct: expressed in transfected cells; host or cells: CHO (Chinese Hamster Ovary)
Sequence (Q12809 whole entry): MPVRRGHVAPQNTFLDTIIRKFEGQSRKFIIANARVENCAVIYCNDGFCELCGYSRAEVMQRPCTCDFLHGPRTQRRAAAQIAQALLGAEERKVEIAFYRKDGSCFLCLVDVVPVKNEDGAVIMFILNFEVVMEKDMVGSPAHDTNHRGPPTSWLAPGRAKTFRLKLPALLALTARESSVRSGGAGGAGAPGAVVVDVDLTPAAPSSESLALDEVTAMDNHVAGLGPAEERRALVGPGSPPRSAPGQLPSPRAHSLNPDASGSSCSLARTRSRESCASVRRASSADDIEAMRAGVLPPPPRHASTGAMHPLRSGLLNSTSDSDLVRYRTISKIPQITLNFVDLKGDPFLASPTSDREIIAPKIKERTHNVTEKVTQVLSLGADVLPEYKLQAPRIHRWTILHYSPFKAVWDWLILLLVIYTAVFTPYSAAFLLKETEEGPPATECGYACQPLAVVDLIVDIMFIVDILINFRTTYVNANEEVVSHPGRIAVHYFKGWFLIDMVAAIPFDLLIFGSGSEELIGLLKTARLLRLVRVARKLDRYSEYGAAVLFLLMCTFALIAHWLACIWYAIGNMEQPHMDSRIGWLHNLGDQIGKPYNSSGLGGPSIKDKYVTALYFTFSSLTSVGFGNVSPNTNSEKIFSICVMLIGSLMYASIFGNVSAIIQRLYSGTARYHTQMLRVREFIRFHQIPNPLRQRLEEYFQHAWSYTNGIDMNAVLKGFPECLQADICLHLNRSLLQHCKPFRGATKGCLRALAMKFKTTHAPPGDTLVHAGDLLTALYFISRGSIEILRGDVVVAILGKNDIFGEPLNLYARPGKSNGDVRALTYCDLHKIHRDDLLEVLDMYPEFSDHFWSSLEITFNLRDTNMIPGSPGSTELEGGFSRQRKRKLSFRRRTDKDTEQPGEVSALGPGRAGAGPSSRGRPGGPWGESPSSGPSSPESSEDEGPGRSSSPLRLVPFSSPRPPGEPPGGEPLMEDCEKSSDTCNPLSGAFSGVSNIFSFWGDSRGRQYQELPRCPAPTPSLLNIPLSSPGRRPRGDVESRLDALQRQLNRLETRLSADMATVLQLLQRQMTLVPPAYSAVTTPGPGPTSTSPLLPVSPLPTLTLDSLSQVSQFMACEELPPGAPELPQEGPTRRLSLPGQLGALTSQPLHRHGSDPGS
Experiment: hERG screening assay (PatchXpress automated patch clamp, CHO cell line)
Type: cell-based
Stated Conditions: 10 μm test compound; CHO cells
Each entry below carries its recorded hERG Patch Clamp hERG % blk (10 μm test cmpd).
Quick note: unit goes after the number.

These solved cases illustrate the format of a correct answer.
[[record]]
smiles_str = "Cc1nc2ccc(Cl)cc2c(-c2ccccc2)c1C(=O)N1CCC(c2ccc(C(N)=O)cc2)CC1"
test_value = "51.0%"

[[record]]
smiles_str = "Cc1nc2ccc(Cl)cc2c(-c2ccccc2)c1C(=O)OCC1CC1"
test_value = "73.0%"


Qu. Reported hERG Patch Clamp hERG % blk (10 μm test cmpd) for hERG potassium channel (Homo sapiens, UniProt Q12809), given CCOC(=O)c1c(CN2C(=O)CCC2=O)nc2ccc(Cl)cc2c1-c1ccccc1 ?
Ans. 65.5%

Qu. Reported hERG Patch Clamp hERG % blk (10 μm test cmpd) for hERG potassium channel (Homo sapiens, UniProt Q12809), given Cc1nc2ccccc2c(C)c1C(=O)OCc1ccc(Cl)cc1 ?
Ans. 62.5%

Qu. Reported hERG Patch Clamp hERG % blk (10 μm test cmpd) for hERG potassium channel (Homo sapiens, UniProt Q12809), given Cc1nc2ccc(Cl)cc2c(-c2ccccc2)c1-c1nnc(Cc2ccc(Cl)cc2)o1 ?
Ans. 32.5%

* * *

Test Target: human Nav1.7 (hNav1.7+β1 subunits) channels expressed in HEK293 cells (Homo sapiens)
Experiment: Nav1.7 screening assay (fluorescent dye-based membrane potential assay, veratridine)
Stated Conditions: veratridine 50 μmol/L, read-out: IC50 for reduction of Nav1.7 Na+ current
Measured Parameter: pIC50
Units for pIC50: none; it is -log10 of a concentration expressed in mol/L.

[[record]]
compound = "Cc1nc2ccc(Cl)cc2c(-c2ccccc2)c1-c1nnc(Cc2ccc(Cl)cc2)o1 [PT-005]"
measured_parameter = "pIC50"
test_value = 6.70


Could you now consider this next compound?
Qu. Give the measured pIC50 of Cc1nc2ccc(Cl)cc2c(-c2ccccc2)c1C(=O)OCC1CC1 [PT-016] .
Ans. 4.43

* * *

Test Target: human cardiac sodium channel, hNav1.5 (Homo sapiens, UniProt Q14524)
Construct: host or cells: HEK293
Sequence (Q14524 whole entry): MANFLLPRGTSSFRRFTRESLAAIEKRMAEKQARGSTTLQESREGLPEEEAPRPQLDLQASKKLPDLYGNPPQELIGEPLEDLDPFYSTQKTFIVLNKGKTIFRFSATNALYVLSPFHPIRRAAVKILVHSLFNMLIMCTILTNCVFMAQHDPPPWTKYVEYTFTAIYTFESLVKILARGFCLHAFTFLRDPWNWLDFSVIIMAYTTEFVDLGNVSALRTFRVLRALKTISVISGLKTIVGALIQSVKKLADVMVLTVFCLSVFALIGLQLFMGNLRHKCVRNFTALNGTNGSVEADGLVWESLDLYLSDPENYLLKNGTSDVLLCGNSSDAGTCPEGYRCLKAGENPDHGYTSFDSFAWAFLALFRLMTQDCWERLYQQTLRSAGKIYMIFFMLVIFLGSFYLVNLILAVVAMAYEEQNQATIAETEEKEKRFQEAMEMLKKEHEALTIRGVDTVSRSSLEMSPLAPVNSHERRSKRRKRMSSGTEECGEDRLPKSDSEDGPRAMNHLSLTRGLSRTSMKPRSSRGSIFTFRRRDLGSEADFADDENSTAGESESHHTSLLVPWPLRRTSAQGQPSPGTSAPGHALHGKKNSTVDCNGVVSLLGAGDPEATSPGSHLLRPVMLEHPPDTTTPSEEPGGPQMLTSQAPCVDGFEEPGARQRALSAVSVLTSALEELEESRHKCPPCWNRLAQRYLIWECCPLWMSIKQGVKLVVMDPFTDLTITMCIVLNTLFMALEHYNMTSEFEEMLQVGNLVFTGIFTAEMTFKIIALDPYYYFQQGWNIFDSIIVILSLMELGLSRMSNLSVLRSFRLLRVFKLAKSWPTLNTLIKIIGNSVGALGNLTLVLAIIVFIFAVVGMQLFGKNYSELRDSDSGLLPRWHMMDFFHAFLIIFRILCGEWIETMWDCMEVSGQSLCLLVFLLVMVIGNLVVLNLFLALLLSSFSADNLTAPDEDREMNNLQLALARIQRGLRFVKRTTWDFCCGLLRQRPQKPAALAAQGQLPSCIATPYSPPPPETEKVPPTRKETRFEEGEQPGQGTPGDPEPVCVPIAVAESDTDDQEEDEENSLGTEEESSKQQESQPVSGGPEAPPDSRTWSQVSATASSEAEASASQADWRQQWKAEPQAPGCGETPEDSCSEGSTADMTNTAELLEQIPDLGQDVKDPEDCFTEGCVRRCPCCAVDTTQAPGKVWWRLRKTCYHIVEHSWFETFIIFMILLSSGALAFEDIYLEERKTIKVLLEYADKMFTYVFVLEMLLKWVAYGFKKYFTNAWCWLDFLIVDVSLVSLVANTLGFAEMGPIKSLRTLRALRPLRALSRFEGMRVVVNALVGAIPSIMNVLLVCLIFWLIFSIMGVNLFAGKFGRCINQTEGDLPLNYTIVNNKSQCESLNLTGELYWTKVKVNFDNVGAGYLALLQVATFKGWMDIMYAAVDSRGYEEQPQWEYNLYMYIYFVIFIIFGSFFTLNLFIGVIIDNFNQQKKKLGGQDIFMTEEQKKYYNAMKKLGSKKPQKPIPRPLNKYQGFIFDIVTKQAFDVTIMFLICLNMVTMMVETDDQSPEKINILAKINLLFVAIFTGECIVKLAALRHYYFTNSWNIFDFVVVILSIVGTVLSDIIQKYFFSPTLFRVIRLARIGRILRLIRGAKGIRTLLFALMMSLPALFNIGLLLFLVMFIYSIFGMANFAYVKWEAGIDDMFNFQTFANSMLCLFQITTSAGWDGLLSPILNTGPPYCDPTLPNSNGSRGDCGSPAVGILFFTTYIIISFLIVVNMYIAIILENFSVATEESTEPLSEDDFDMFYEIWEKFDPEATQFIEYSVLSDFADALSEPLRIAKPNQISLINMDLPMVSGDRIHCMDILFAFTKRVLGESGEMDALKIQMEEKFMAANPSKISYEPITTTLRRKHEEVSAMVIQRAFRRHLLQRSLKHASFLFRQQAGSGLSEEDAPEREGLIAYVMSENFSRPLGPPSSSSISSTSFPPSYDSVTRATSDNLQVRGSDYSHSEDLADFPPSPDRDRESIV
Experiment: Late INa screening assay (automated whole cell patch clamp, PatchXpress; late current generated with 10 μM Tefluthrin)
Assay type: cell-based
Stated Conditions: 10 μM test compound; HEK293 cells expressing hNav1.5; read-out: Late Ina % blk (10 μM test cmpd)
Use inhibition at 10 µM to assign classes; range list: small value: < 50%; mid value: ≥ 50% and < 60%; large value: ≥ 60%

Example entries and their recorded answers appear below.
[[record]]
compound = "CCOC(=O)c1c(COc2ccc(Cl)cc2OC)nc2ccc(Cl)cc2c1-c1ccccc1 [PT-011]"
cat = "small value"

[[record]]
compound = "CCOC(=O)c1c(C)nc2ccc(Cl)cc2c1-c1ccccc1F [PT-030]"
cat = "mid value"

[[record]]
compound = "Cc1nc2ccccc2c(-c2ccccc2)c1C(=O)OCc1ccccc1 [PT-001]"
cat = "large value"


Qu. Which class is correct for the following compound? CCOC(=O)c1c(CN(C)C)nc2ccc(Cl)cc2c1-c1ccccc1 [PT-024]
Ans. mid value

Qu. Which class is correct for the following compound? CCOC(=O)c1c(CN2C(=O)CCC2=O)nc2ccc(Cl)cc2c1-c1ccccc1 [PT-009]
Ans. mid value

Qu. Which class is correct for the following compound? CCOC(=O)c1c(Cn2cnnn2)nc2ccc(Cl)cc2c1-c1ccccc1 [PT-010]
Ans. small value

Qu. Which class is correct for the following compound? Cc1nc2ccccc2c(C)c1C(=O)OCc1ccc(Cl)cc1 [PT-019]
Ans. large value

Qu. Which class is correct for the following compound? Cc1nc2ccc(Cl)cc2c(-c2ccccc2Cl)c1C(=O)OCc1ccccc1Br [PT-027]
Ans. small value

* * *

Test Target: human cardiac sodium channel, hNav1.5 (Homo sapiens, UniProt Q14524)
Construct: host or cells: HEK293
Experiment: Late INa screening assay (automated whole cell patch clamp, PatchXpress; late current generated with 10 μM Tefluthrin)
Assay type: cell-based
Stated Conditions: 10 μM test compound; HEK293 cells expressing hNav1.5; read-out: Late Ina % blk (10 μM test cmpd)
Procedure: The late sodium current (Late INa) and peak sodium current (Peak INa) assays were performed on an automated electrophysiology platform, PatchXpress 7000A (MDS Analytical Technologies, Sunnyvale, Calif.), which uses the whole cell patch clamp technique to measure currents through the cell membrane of up to 16 cells at a time. […]
Measured Parameter: inhibition at 10 µM
Quick note: unit goes after the number.

These solved cases illustrate the format of a correct answer.
[[record]]
compound = "Cc1nc2ccc(Cl)cc2c(C)c1C(=O)OCc1ccccc1Br [PT-032]"
measured_parameter = "inhibition at 10 µM"
test_value = "82.4%"

[[record]]
compound = "Cc1nc2ccc(Cl)cc2c(-c2ccccc2)c1-c1nnc(Cc2ccc(Cl)cc2)o1 [PT-005]"
measured_parameter = "inhibition at 10 µM"
test_value = "43.6%"

[[record]]
compound = "CCOC(=O)c1c(Cn2ccnc2)nc2ccc(Cl)cc2c1-c1ccccc1 [PT-008]"
measured_parameter = "inhibition at 10 µM"
test_value = "41.1%"

[[record]]
compound = "Cc1nc2ccc(Cl)cc2c(-c2ccccc2)c1C(=O)N1CCC(c2ccc(C(N)=O)cc2)CC1 [PT-017]"
measured_parameter = "inhibition at 10 µM"
test_value = "29.4%"

[[record]]
compound = "Cc1nc2ccc(Cl)cc2c(-c2ccccc2)c1C(=O)N1CCCCC1 [PT-013]"
measured_parameter = "inhibition at 10 µM"
test_value = "30.2%"

[[record]]
compound = "N#Cc1c(N)nc2ccc(Cl)cc2c1-c1ccccc1 [PT-004]"
measured_parameter = "inhibition at 10 µM"
test_value = "15.2%"

[[record]]
compound = "Cc1nc2ccc(Cl)cc2c(-c2ccccc2)c1C(=O)O[C@H](C)c1ccccc1 [PT-015]"
measured_parameter = "inhibition at 10 µM"
test_value = "37%"

[[record]]
compound = "Cc1nc2ccc(Cl)cc2c(-c2ccccc2)c1C(=O)OC(c1ccccc1)C1CC1 (stereo not drawn) [PT-012]"
measured_parameter = "inhibition at 10 µM"
test_value = "20.5%"


Qu. Give the measured inhibition at 10 µM of COC(=O)c1c(C)nc2ccccc2c1C [PT-025] .
Ans. 26.6%

* * *

Test Target: hERG potassium channel (Homo sapiens, UniProt Q12809)
Construct: expressed in transfected cells; host or cells: CHO (Chinese Hamster Ovary)
Experiment: hERG screening assay (PatchXpress automated patch clamp, CHO cell line)
Assay type: cell-based
Stated Conditions: 1 μm test compound; CHO cells
Experimental: Compounds were screened to test their activity in blocking the hERG potassium channel. The hERG channel is heterologously expressed in a CHO (Chinese Hamster Ovary) cell line. […] hERG channels are activated when the voltage is stepped to +20 mV from the −80 mV holding potential. […] The peak current at −50 mV was measured both under control conditions and after addition of compound. […]
Measured Parameter: hERG Patch Clamp hERG % blk (1 μm test cmpd) (%)
Value expressed in %; do not type the unit.

[[record]]
smiles_str = "Cc1nc2ccccc2c(C)c1C(=O)OCc1ccc(Cl)cc1"
test_value = 10.0

[[record]]
smiles_str = "CCOC(=O)c1c(Cn2ccnc2)nc2ccc(Cl)cc2c1-c1ccccc1"
test_value = 43.0

[[record]]
smiles_str = "Cc1nc2ccc(Cl)cc2c(-c2ccccc2)c1C(=O)OCC1CC1"
test_value = 30.5


Qu. Give the measured hERG Patch Clamp hERG % blk (1 μm test cmpd) of CCOC(=O)c1c(CN2C(=O)CCC2=O)nc2ccc(Cl)cc2c1-c1ccccc1 .
Ans. 24.0

Qu. Give the measured hERG Patch Clamp hERG % blk (1 μm test cmpd) of CCOC(=O)c1c(Cn2cnnn2)nc2ccc(Cl)cc2c1-c1ccccc1 .
Ans. 18.5

* * *

Test Target: human cardiac sodium channel, hNav1.5 (Homo sapiens, UniProt Q14524)
Construct: host or cells: HEK293
Experiment: Late INa screening assay (automated whole cell patch clamp, PatchXpress; late current generated with 10 μM Tefluthrin)
Type: cell-based
Stated Conditions: 10 μM test compound; HEK293 cells expressing hNav1.5; read-out: Late Ina % blk (10 μM test cmpd)
Measured Parameter: inhibition at 10 µM (%)
Value expressed in %; do not type the unit.

[[record]]
compound = "Cc1nc2ccccc2c(C)c1-c1nnc(C(C)(C)c2ccc(Cl)cc2)o1"
test_value = 64.4


Could you now consider this next compound?
Qu. Give the measured inhibition at 10 µM of CCOC(=O)c1c(CN2C(=O)c3ccccc3C2=O)nc2ccc(Cl)cc2c1-c1ccccc1 .
Ans. 24

* * *

Test Target: human cardiac sodium channel, hNav1.5 (Homo sapiens)
Construct: host or cells: HEK293
Experiment: Late INa screening assay (automated whole cell patch clamp, PatchXpress; late current generated with 10 μM Tefluthrin)
Type: cell-based
Stated Conditions: 10 μM test compound; HEK293 cells expressing hNav1.5; read-out: Late Ina % blk (10 μM test cmpd)
Threshold rule: inhibition at 10 µM greater than or equal to 50% is MET; below that, NOT MET.

Example entries and their recorded answers appear below.
[[record]]
compound = "Cc1nc2ccc(Cl)cc2c(-c2ccccc2Cl)c1C(=O)OC(C)(C)C"
test_target = "human cardiac sodium channel, hNav1.5 (Homo sapiens)"
cat = "NOT MET"

[[record]]
compound = "Cc1nc2ccc(Cl)cc2c(-c2ccccc2F)c1C(=O)OC(C)(C)C"
test_target = "human cardiac sodium channel, hNav1.5 (Homo sapiens)"
cat = "NOT MET"


Qu. inhibition at 10 µM >= 50% for Cc1nc2ccc(Cl)cc2c(-c2ccccc2)c1C(=O)OCc1ccc(Cn2cccn2)cc1 ?
Ans. MET

Qu. inhibition at 10 µM >= 50% for Cc1nc2ccc(Cl)cc2c(-c2ccccc2)c1C(=O)OCC1CC1 ?
Ans. MET

Qu. inhibition at 10 µM >= 50% for CCOCc1nc2ccccc2c(C)c1C(=O)OCC ?
Ans. NOT MET
